# Test system: EKVX NSCLC
# METHOD DESCRIPTION: NCI-60 one-dose screen, 48 h (100 = growth as untreated, 0 = no growth, -100 = all killed)
# REPORTED CONDITIONS: 10 µM unless noted
The panel holds about 83,000 compounds, 20% with a hit somewhere; the sample as a whole holds those more often.
Reported growth values for the following molecules.
Write the value in % as a bare number.

Answered examples (5):
Problem: // Input: `CCCCNc1ccc2c3c(cccc13)C(=O)N(c1cccc(-c3nn(-c4ccccc4)cc3-c3nc4ccccc4s3)c1)C2=O` . Output its growth only.
Result: 96.4

Problem: // Input: CC1=NN(C2=NC(=O)C(CC(=O)Nc3ccccc3C(F)(F)F)S2)C(c2ccc(N(C)C)cc2)C1 (centres undefined) . Output its growth only.
Result: 48.5

Problem: // Input: `COc1cc(NC(=O)C(C)C)ccc1C(=O)NC(=S)Nc1ccc(S(N)(=O)=O)cc1` . Output its growth only.
Result: 102

Problem: // Input: `Nc1nnc(-c2cncc(Br)c2)c(-c2c[nH]c3ccc(Br)cc23)n1` . Output its growth only.
Result: 65.7

Problem: // Input: `COc1ccc2[nH]c(=O)c(CSc3ccccc3Nc3nccc(-c4ccc5c(c4)OCO5)n3)cc2c1` . Output its growth only.
Result: 88

More entries:
Problem: // Input: `CN(C)c1nc(NCCNS(=O)(=O)c2ccc(C(=O)/C=C/c3ccc(C(F)(F)F)cc3)cc2)nc(N2CCOCC2)n1` . Output its growth only.
Result: 37.1

Problem: // Input: `N#Cc1c(-c2ccc(F)cc2)nc(SCc2ccc(F)cc2)nc1N1CCNCC1` . Output its growth only.
Result: 1.29

Problem: // Input: `O=C(CSc1nc2sc3c(c2c(=O)n1-c1ccc(Cl)cc1)CCCC3)NNC(=O)c1ccc(Br)cc1` . Output its growth only.
Result: 60.9

Problem: // Input: `COc1ccccc1NC(=O)c1ccc(NC(=O)CCl)s1` . Output its growth only.
Result: 59.7

* * *

# System: LOX IMVI melanoma
# METHOD DESCRIPTION: NCI-60 one-dose screen, 48 h (100 = growth as untreated, 0 = no growth, -100 = all killed)
# REPORTED CONDITIONS: 10 µM
About 83,000 compounds went through this panel and 20% of them were active in at least one assay; those are over-represented in the sample as a whole.
Reported growth values for the following compounds.
Write the value in % as a bare number.

Answered examples (3):
Problem: // Input: `CC/C(=C(/c1ccc(O)cc1)c1ccc(OCCN(C)C(=O)CCOCCNC(=O)Cc2ccc3c(c2)CN([C@@H]2CCC(=O)NC2=O)C3=O)cc1)c1ccccc1` . Output its growth only.
Result: 93.6

Problem: // Input: `CC/C(=C(/c1ccc(O)cc1)c1ccc(OCCN(C)C(=O)COCCOCCNC(=O)c2ccc3c(c2)CN([C@@H]2CCC(=O)NC2=O)C3=O)cc1)c1ccccc1` . Output its growth only.
Result: 97.2

Problem: // Input: `CC/C(=C(\c1ccc(O)cc1)c1ccc(OCCN(C)C(=O)CCOCCNC(=O)c2ccc3c(c2)CN([C@@H]2CCC(=O)NC2=O)C3=O)cc1)c1ccccc1` . Output its growth only.
Result: 94.4

More entries:
Problem: // Input: `CC/C(=C(/c1ccc(O)cc1)c1ccc(OCCN(C)C(=O)COCCOCCNC(=O)Cc2ccc3c(c2)CN([C@@H]2CCC(=O)NC2=O)C3=O)cc1)c1ccccc1` . Output its growth only.
Result: 92.1

* * *

# Test system: MDA-MB-468 breast
# METHOD DESCRIPTION: NCI-60 one-dose screen, 48 h (100 = growth as untreated, 0 = no growth, -100 = all killed)
# REPORTED CONDITIONS: 10 µM unless noted
Compounds without any hit were thinned out: in the full panel of roughly 83,000, 20% have a hit. Active and inactive are the calls of the source. Rule for the calls: active = growth percent below 10; inactive = the rest.
Reported growth values for the following molecules.

Problem: // Input: `COc1ccc2[nH]cc(-c3cc4nc(-c5cn(C)c6ncc(Br)cc56)cc(N)n4n3)c2c1` . Output its growth only.
Result: -83.1% (active)

Problem: // Input: `COc1ccc(C(=O)/C=C/c2ccc3c(c2)OCCO3)cc1S(N)(=O)=O` . Output its growth only.
Result: 80.7% (inactive)

Kindly consider the entry below.
Problem: // Input: `COc1ccc(NC(=O)N/N=C/c2c[nH]c3ccccc23)cc1` . Output its growth only.
Result: 16.4% (inactive)

* * *

# Test system: MDA-MB-468 breast
# METHOD DESCRIPTION: NCI-60 one-dose screen, 48 h (100 = growth as untreated, 0 = no growth, -100 = all killed)
# REPORTED CONDITIONS: 10 µM unless noted
The panel holds about 83,000 compounds, 20% with a hit somewhere; the sample as a whole holds those more often.
QUANTITY KIND: growth (%)
Write the value in % as a bare number.

Answered examples (3):
Problem: // Input: `COc1cncc(-c2ccc3ncnc(N4CCc5ccc(Cl)cc54)c3c2)c1` . Output its growth only.
Result: -67.4

Problem: // Input: `COc1c(B(O)O)cccc1-c1nc2ccc3cn[nH]c3c2c2c1CCCC2` . Output its growth only.
Result: 10.5

Problem: // Input: `Cc1nn(-c2ccccc2)c2nc(C)n(C(=O)N/N=C/c3cccc([N+](=O)[O-])c3)c(=O)c12` . Output its growth only.
Result: 73.1

More entries:
Problem: // Input: `CC(C)C[C@H](NC(=O)CNC(=O)C[C@H]1O[C@@H]2OC3(C)CC[C@H]4[C@H](C)CC[C@@H]([C@H]1C)[C@@]24O3)B(O)O` . Output its growth only.
Result: -58.4

Problem: // Input: `COc1ccc(C(=O)C[n+]2cccc3c4ccccc4ccc32)cc1` . Output its growth only.
Result: 2.93

* * *

# Test system: M14 melanoma
# METHOD DESCRIPTION: NCI-60 one-dose screen, 48 h (100 = growth as untreated, 0 = no growth, -100 = all killed)
# REPORTED CONDITIONS: 10 µM unless noted
The panel holds about 83,000 compounds, 20% with a hit somewhere; the sample as a whole holds those more often. The source made the active and inactive calls. The calls were made as follows: active = growth percent below 10; inactive = the rest.
QUANTITY KIND: growth

Problem: // Input: `CN1CCN(C(=O)CCN(C(=O)Oc2cc3c(c4ccccc24)[C@H](CCl)CN3C(=O)c2cc3cc(OCCCN4CCC4)ccc3[nH]2)[C@H]2CCSSC2)CC1` . Output its growth only.
Result: -62.5% (active)

Problem: // Input: `O=C(NN1C(=O)/C(=C/C=C/c2ccc([N+](=O)[O-])o2)SC1=S)c1ccncc1` . Output its growth only.
Result: -67.9% (active)

Problem: // Input: `CC[C@]12C=CCN3CC[C@]4(C(=C(C(=O)OC)C1)Nc1cc(OC)c([C@@H]5[C@H]6O[C@H]6[C@@]6(CC)CC(C(=O)OC)=C7Nc8cc(O)ccc8[C@@]78CCN5[C@@H]68)cc14)[C@@H]32` . Output its growth only.
Result: -28.4% (active)

Problem: // Input: `CCC(=O)c1cc(C(=O)OC)c2ccc3c4ccccc4ccc3n12` . Output its growth only.
Result: 105% (inactive)

Problem: // Input: `COc1nc(N)ncc1-c1ccc2ncnc(N3CCc4cc(F)c(Cl)cc43)c2c1` . Output its growth only.
Result: 62.4% (inactive)

More entries:
Problem: // Input: `COc1cc(/C=C/C(=O)c2cnn(-c3cc(=O)[nH]c4ccc(Cl)cc34)c2C)cc(OC)c1OC` . Output its growth only.
Result: -49% (active)

Problem: // Input: Cc1cc(C)c2[nH]c(=O)c(C(c3nnnn3Cc3ccc4c(c3)OCO4)N3CCN(C)CC3)cc2c1 (stereo not drawn) . Output its growth only.
Result: 111% (inactive)

Problem: // Input: `COC(=O)c1cc(C(C)=O)n2c3ccccc3c3ccccc3c12` . Output its growth only.
Result: 72.1% (inactive)

* * *

# Tested on: CCRF-CEM leukemia
# METHOD DESCRIPTION: NCI-60 one-dose screen, 48 h (100 = growth as untreated, 0 = no growth, -100 = all killed)
# REPORTED CONDITIONS: 10 µM unless noted
About 83,000 compounds went through this panel and 20% of them were active in at least one assay; those are over-represented in the sample as a whole.
Reported growth values for the following compounds.
Write the value in % as a bare number.

Problem: // Input: `N#Cc1ccc(C(=O)NNC(=O)CSc2nc3sc4c(c3c(=O)n2-c2ccc(Cl)cc2)CCCC4)cc1` . Output its growth only.
Result: 48.9

Problem: // Input: `O=C(CSc1nc2ccccc2c(=O)[nH]1)NNC(=O)c1ccccc1Cl` . Output its growth only.
Result: 120

Problem: // Input: `C/C(=N\Nc1ccc(C(=O)O)cc1)c1cnn(-c2cc(=O)[nH]c3ccc(C)cc23)c1C` . Output its growth only.
Result: 93

Problem: // Input: `COc1cc(/C=C/C(=O)c2cnn(-c3cc(=O)[nH]c4ccc(Br)cc34)c2C)cc(OC)c1OC` . Output its growth only.
Result: -19.6

Problem: // Input: `CS(=O)(=O)c1ccc(-n2nc(C(=O)NCc3ccccc3)cc2-c2ccc(Cl)cc2)cc1` . Output its growth only.
Result: 58.6

More entries:
Problem: // Input: `COc1ccc(-c2nc3ccc(-c4nnc(SCc5ccccc5)o4)cc3[nH]2)cc1` . Output its growth only.
Result: 13.9

Problem: // Input: `CC(C)C[C@H](NC(=O)[C@@H]1CCCCCCCCCCC(=O)N[C@@H](CC(=O)N2CCC[C@@H]2C2CCCC2)C(=O)N1)B(O)O` . Output its growth only.
Result: 44

Problem: // Input: CC1=C(C(=O)Nc2ccccc2)C(c2cccc(Cl)c2Cl)n2c(nc3ccccc32)N1 (centres undefined) . Output its growth only.
Result: 29.8

Problem: // Input: `COc1nc(N)ncc1-c1ccc2ncnc(N3CCc4cc(F)c(Cl)cc43)c2c1` . Output its growth only.
Result: 61.6

The measured values listed here are drawn from PubChem BioAssay (NCI).
